Biological target: T1, human APRIL (5860-AP-010/CF, R&D Systems) (human, UniProt O75888 115-250, limits assumed)
T1 sequence (looked up): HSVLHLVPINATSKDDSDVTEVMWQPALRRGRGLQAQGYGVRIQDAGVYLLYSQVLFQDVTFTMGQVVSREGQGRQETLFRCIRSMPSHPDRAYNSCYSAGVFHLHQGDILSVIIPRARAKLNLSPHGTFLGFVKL
Experiment: cell-based or functional assay
recorded-endpoint: IC50 (nM) for the inhibition of the APRIL-induced B cell proliferation
# unit: nM | format: bare number

Reported IC50 (nM) for the inhibition of the APRIL-induced B cell proliferation for TACI-9-15Fc9 fusion protein (Fc fusion, Full-length chain) STSCREEQGEFYDHLLRDCISCASICGQHPKQCAAFCEEPKSSDKTHTCPPCPAPEAEGAPSVFLFPPKPKDTLMISRTPEVTCVVVDVSHEDPEVKFNWYVDGVEVHNAKTKPREEQYNSTYRVVSVLTVLHQDWLNGKEYKCKVSNKALPSSIEKTISKAKGQPREPQVYTLPPSRDELTKNQVSLTCLVKGFYPSDIAVEWESNGQPENNYKTTPPVLDSDGSFFLYSKLTVDKSRWQQGNVFSCSVMHEALHNHYTQKSLSLSPGGGGSSTSCREEQGEFYDHLLRDCISCASICGQHPKQCAAFCESS was 0.00947
